The reported measurements were obtained from ChEMBL document CHEMBL5346911.

Record: IC50 reported on Bromodomain-containing protein 4 (Homo sapiens).
Write down the numeric answer in nM and omit the unit.

Below: 6 molecules and their reported IC50.
{"Chemical Structure": "Cc1sc2c(c1C)C(c1ccc(Cl)cc1)=N[C@@H](CC(=O)NCC(=O)O)c1nnc(C)n1-2", "Measured Target": "Bromodomain-containing protein 4 (Homo sapiens)", "Assay Value": 0.4}
{"Chemical Structure": "Cc1sc2c(c1C)C(c1ccc(Cl)cc1)=N[C@@H](CC(=O)NCc1c[nH]nn1)c1nnc(C)n1-2", "Measured Target": "Bromodomain-containing protein 4 (Homo sapiens)", "Assay Value": 1}
{"Chemical Structure": "COC(=O)[C@H](Cc1c[nH]cn1)NC(=O)C[C@@H]1N=C(c2ccc(Cl)cc2)c2c(sc(C)c2C)-n2c(C)nnc21", "Measured Target": "Bromodomain-containing protein 4 (Homo sapiens)", "Assay Value": 6}
{"Chemical Structure": "Cc1sc2c(c1C)C(c1ccc(Cl)cc1)=N[C@@H](CC(=O)NCc1cn(C)cn1)c1nnc(C)n1-2", "Measured Target": "Bromodomain-containing protein 4 (Homo sapiens)", "Assay Value": 0.6}
{"Chemical Structure": "Cc1sc2c(c1C)C(c1ccc(Cl)cc1)=N[C@@H](CC(=O)Nc1nncs1)c1nnc(C)n1-2", "Measured Target": "Bromodomain-containing protein 4 (Homo sapiens)", "Assay Value": 0.2}
{"Chemical Structure": "Cc1sc2c(c1C)C(c1ccc(Cl)cc1)=N[C@@H](CC(=O)NCc1ccccc1)c1nnc(C)n1-2", "Measured Target": "Bromodomain-containing protein 4 (Homo sapiens)", "Assay Value": 0.3}

Would you kindly look at the next entry?
Tested on Bromodomain-containing protein 4 (Homo sapiens), the item Cc1sc2c(c1C)C(c1ccc(Cl)cc1)=N[C@@H](CC(=O)NCc1cn(C)nn1)c1nnc(C)n1-2 showed IC50 equal to 26
